system: OVCAR-4 ovarian; assay: NCI tumour cell line growth inhibition, 48 h
property.label: TGI

Param readout= TGI; system= OVCAR-4 ovarian; entry= "C#C[C@@]1(O)[C@@H](CO)O[C@@H](n2ccc3c(N)ncnc32)[C@@H]1O" ; returns value.
7.79 µM

Param readout= TGI; system= OVCAR-4 ovarian; entry= "Nc1ccc2cc3[nH]c4cc(N)ccc4c3nc2c1" ; returns value.
3.02 µM

Param readout= TGI; system= OVCAR-4 ovarian; entry= "N#CSCc1c(Cl)cccc1Cl" ; returns value.
> 100 µM

Param readout= TGI; system= OVCAR-4 ovarian; entry= Cc1ccccc1NC(=O)C1C(=O)N(c2ccccc2C)C(=O)/C1=N\N (stereo not drawn) ; returns value.
> 100 µM

Param readout= TGI; system= OVCAR-4 ovarian; entry= "COC(=O)c1c2c(c(-c3ccccc3)c3c1-c1nc(Cl)ccc1CC3)CCc1ccc(Cl)nc1-2" ; returns value.
> 100 µM

Param readout= TGI; system= OVCAR-4 ovarian; entry= "c1ccc(N=c2sc3ccccc3sc2=Nc2ccccc2)cc1" ; returns value.
3.68 µM

Param readout= TGI; system= OVCAR-4 ovarian; entry= "C/C1=C\[C@H](C)C[C@H](C)OC(=O)C[C@H](c2ccc(O)cc2)NC(=O)[C@H](Cc2ccc(O)c(Br)c2)N(C)C(=O)[C@H](C)NC(=O)[C@@H](C)C1" ; returns value.
> 25 µM

Param readout= TGI; system= OVCAR-4 ovarian; entry= "COc1ccc(N2C(=O)c3cccnc3S2(=O)=O)cc1" ; returns value.
> 100 µM

Param readout= TGI; system= OVCAR-4 ovarian; entry= "CN1C(=O)[C@@H]2N(CSC2(C)C)C1=S" ; returns value.
> 100 µM

Param readout= TGI; system= OVCAR-4 ovarian; entry= "COc1cc(Br)cc2nc(-c3cccs3)oc12" ; returns value.
> 100 µM

Param readout= TGI; system= OVCAR-4 ovarian; entry= "O=C(O)c1nc2ccccc2nc1Nc1ccc(F)cc1" ; returns value.
> 100 µM

Param readout= TGI; system= OVCAR-4 ovarian; entry= "COc1cc(C(=O)C/C(CCC(=O)Nc2ccc(Cl)cc2Cl)=N/NC(=O)C(N)=O)ccc1O" ; returns value.
> 100 µM

Param readout= TGI; system= OVCAR-4 ovarian; entry= "Nc1c(C(=O)c2cccc(C#CCN3CCOCC3)c2)cnn1-c1ccc(F)cc1" ; returns value.
> 25 µM

Param readout= TGI; system= OVCAR-4 ovarian; entry= "S=C=NCc1ccccc1" ; returns value.
13.8 µM

Param readout= TGI; system= OVCAR-4 ovarian; entry= "CN(C)CCCNc1ccnc2cc([N+](=O)[O-])ccc12" ; returns value.
12.8 µM

Param readout= TGI; system= OVCAR-4 ovarian; entry= "c1ccc(-c2nnc(Nc3ccc4c(c3)OCCO4)o2)c(NCc2ccncc2)c1" ; returns value.
21.9 µM

Param readout= TGI; system= OVCAR-4 ovarian; entry= "O=C(O)c1ccc(NCc2nc3cc4ccccc4cc3[nH]2)cc1" ; returns value.
> 100 µM

Param readout= TGI; system= OVCAR-4 ovarian; entry= "COc1c(Cl)cc(S(=O)O)cc1Cl" ; returns value.
> 100 µM

* * *

Assign TGI to each entry below.
test system: NCI-H23 lung; assay: NCI tumour cell line growth inhibition, 48 h

TGI lookup needed for "COc1ccc([C@H]2C=C(c3cc(F)c(Cl)cc3Cl)NC(=S)N2)cc1" , thanks.
> 100 µM

TGI lookup needed for Cn1c(=O)c2c(nc(N)n2C2OC(CO)C(O)C2O)n(C)c1=O (stereo unspecified) , thanks.
> 100 µM

TGI lookup needed for "Cc1ccc2c(Nc3cccc(Cl)c3F)ncc(NC(=O)c3csc4c(N)ncnc34)c2c1" , thanks.
> 100 µM

TGI lookup needed for Cc1ccc2c(c1)SC(c1cc3c(cc1Br)OCO3)S2 (stereo unspecified) , thanks.
> 31.6 µM

TGI lookup needed for "Cc1cc(=O)oc2c1cc(OCC(=O)OCCN1CCCCC1)c1occ(C)c12" , thanks.
> 100 µM

TGI lookup needed for CCOC(=O)CCC(NC(=O)c1ccc(Nc2nc3ccccc3n3cccc23)cc1)C(=O)OCC (stereo unspecified) , thanks.
> 100 µM

TGI lookup needed for "Nc1ccc(Nc2c3ccccc3nc3ccccc23)cc1" , thanks.
> 10 µM

TGI lookup needed for "COc1ccc(OC)c(C#Cc2ccc(OC)c(C(=O)NCCc3ccc(F)cc3)c2)c1" , thanks.
> 100 µM

TGI lookup needed for "CCN(CC)CCn1c2cc3c(cc2c(=O)c2cccnc21)OCO3" , thanks.
> 10 µM

TGI lookup needed for CC(C)c1c(O[Si](C(C)C)(C(C)C)C(C)C)c2c3c(ccc4c3c1OC4(C)C)C(C)CC2 (stereo unspecified) , thanks.
> 100 µM

TGI lookup needed for CO[C@@H]1C=C[C@@]23c4cc5c(cc4C(O)N(CC2O)C3C1)OCO5 (stereo partly specified) , thanks.
56.1 µM

TGI lookup needed for "CN1CCCC1=NC#N" , thanks.
> 100 µM

TGI lookup needed for "Nc1nnc(N)n1NC(=O)C(=O)Nc1ccc([N+](=O)[O-])cc1" , thanks.
> 100 µM

TGI lookup needed for "O=c1cc(O)c2ccccc2o1" , thanks.
> 100 µM

TGI lookup needed for "CC#Cc1cc2c(cc1O)CC[C@@H]1[C@@H]2CC[C@]2(C)[C@@H](O)CC[C@@H]12" , thanks.
10.6 µM

TGI lookup needed for "Nc1c(C(=O)c2cccc(C#CCN3CCOCC3)c2)cnn1-c1ccc(F)cc1" , thanks.
> 25 µM

TGI lookup needed for "N#CCN1CCOCCOCCN(CC#N)CCOCCOCC1" , thanks.
> 100 µM

TGI lookup needed for O=C(OCC1OC(OC(=O)c2cc(O)c(O)c(OC(=O)c3cc(O)c(O)c(O)c3)c2)C(OC(=O)c2cc(O)c(O)c(OC(=O)c3cc(O)c(O)c(O)c3)c2)C(OC(=O)c2cc(O)c(O)c(OC(=O)c3cc(O)c(O)c(O)c3)c2)C1OC(=O)c1cc(O)c(O)c(OC(=O)c2cc(O)c(O)c(O)c2)c1)c1cc(O)c(O)c(OC(=O)c2cc(O)c(O)c(O)c2)c1 (stereo unspecified) , thanks.
> 50 µM

TGI lookup needed for Cc1ccc(C2(O)CC(c3ccc([N+](=O)[O-])o3)=NN2C(=O)COc2ccccc2Cl)cc1 (stereo unspecified) , thanks.
33.6 µM

TGI lookup needed for "C/C1=C\C/C=C(\C)[C@H]2CC(CC/C(C)=C/CC1)[C@@](C)(CO)O2" , thanks.
> 100 µM

TGI lookup needed for Cc1cc(S(=O)(=O)NC2=NC(c3ccccc3)c3ccccc3N2)c(S)cc1Cl (stereo unspecified) , thanks.
> 100 µM

TGI lookup needed for "CC(C)Oc1ccc(CNC2=NCCO2)c2ccccc12" , thanks.
30.2 µM

TGI lookup needed for "COc1ccc2c(c1)CC[C@@H]1[C@@H]2CC[C@]2(C)C(=O)/C(=C/c3ccncc3)C[C@@H]12" , thanks.
> 100 µM

TGI lookup needed for "CN1CCN(Cc2ccc(NC(=O)c3nc4ccc5[nH]ncc5c4c4c3CCC4)cc2C(F)(F)F)CC1" , thanks.
3.22 µM

TGI lookup needed for "O=C(O)C[O][Sb][O]CC(=O)O" , thanks.
> 100 µM

TGI lookup needed for "CCCCCCCCCCCC[n+]1ccccc1" , thanks.
5.67 µM

TGI lookup needed for CCCNC(C#N)c1ccc(OCCCCCCCCCCOc2ccc(C(C#N)NCCC)cc2)cc1 (stereo unspecified) , thanks.
> 100 µM

TGI lookup needed for "NNc1ccccc1Cl" , thanks.
> 100 µM

TGI lookup needed for "CN(C)/C=C(\C(=O)c1ccccc1)n1nc(-c2ccccc2)cc1-c1ccccc1" , thanks.
> 10 µM

TGI lookup needed for COc1ccc2c(c1)CCCN1Cc3cc(OC)c(OC)cc3CC21 (stereo unspecified) , thanks.
> 100 µM

TGI lookup needed for "COc1ccc2c(c1)sc1nc(-c3ccccc3)c(-c3ccc(O)c(OC)c3)n12" , thanks.
> 100 µM

* * *

test system: NCI-H226 lung; assay: NCI tumour cell line growth inhibition, 48 h
property.label: TGI (µM)
Write it as a number; the unit µM goes unstated.

Param readout= TGI; system= NCI-H226 lung; entry= "CCCN(CCC)c1cc2c(cc1F)c(=O)c(C(=O)O)cn2-c1ccc(N2CCN(C)CC2)cn1" ; returns value.
31.1

Param readout= TGI; system= NCI-H226 lung; entry= "CC(C)=C[C@@H]1C[C@H](C)c2c(O)cc(C)c3c2C1=C(C)C(=O)C3=O" ; returns value.
33

Param readout= TGI; system= NCI-H226 lung; entry= CC(C)C1SCc2nc3ccccc3n21 (centres undefined) ; returns value.
0.96

Param readout= TGI; system= NCI-H226 lung; entry= "c1ccc(N=c2sc3ccccc3sc2=Nc2ccccc2)cc1" ; returns value.
9.3

Param readout= TGI; system= NCI-H226 lung; entry= "COc1cccc(-n2ncc3c(N/N=C/c4ccc(S(C)(=O)=O)cc4)ncnc32)c1" ; returns value.
18.1

Param readout= TGI; system= NCI-H226 lung; entry= "CCN(CC)CCCOc1cc(O)c2c(=O)cc(-c3ccccc3)oc2c1" ; returns value.
29.7

Param readout= TGI; system= NCI-H226 lung; entry= COc1ccccc1N1C(=O)CS(=O)(=O)C1c1cccc(Oc2ccccc2)c1 (centres undefined) ; returns value.
31.8

Param readout= TGI; system= NCI-H226 lung; entry= CCO/C=N/C1=C(C#N)C(c2ccc(Cl)cc2)c2c(-c3ccccc3)nn(-c3ccccc3)c2O1 (centres undefined) ; returns value.
46.9

Param readout= TGI; system= NCI-H226 lung; entry= Nc1ncnc2c(C3OC(CO)C(O)C3O)scc12 (centres undefined) ; returns value.
0.731

Param readout= TGI; system= NCI-H226 lung; entry= ClC1=NC(Cl)C(Cl)=N/C1=N\c1ncn[nH]1 (centres undefined) ; returns value.
15.9
